Ref: patent US9676714B2

system: basal gastric acid secretion; experiment: Inhibitory effect on the basal gastric acid secretion in pylorus-ligated rats (Shay's rat model); assay type: in vivo, Sprague Dawley (SD) rats; conditions: 5 h, male SD rats, 3 mg/kg/2 ml into the duodenum, five hours after the ligation, total gastric acid secretion vs control group
Where a name gives a salt, the structure may show the parent alone.
inhibition in vivo at 3 mg/kg listing for selected molecules.
QUANTITY KIND: inhibition in vivo at 3 mg/kg (%)

# MOLECULE, SYSTEM, READOUT VALUE
measured = [
    ("CNCc1cn(S(=O)(=O)c2cncc(F)c2)c2cc(Nc3ccc(OC)nc3Cl)ccc12 [Example 217, hydrochloride]", "basal gastric acid secretion", 44),
    ("CNCc1cn(S(=O)(=O)c2cccc(F)c2)c2cc(Nc3ccc(C(F)(F)F)nc3Cl)ccc12 [Example 145, hydrochloride]", "basal gastric acid secretion", 45),
    ("CNCc1cn(S(=O)(=O)c2cccc(Cl)c2)c2cc(Nc3ccc(OC)nc3Cl)ccc12 [Example 160, hydrochloride]", "basal gastric acid secretion", 57),
    ("CNCc1cn(S(=O)(=O)c2cccc(F)c2)c2cc(Nc3ccc(Cl)nc3OC)ccc12 [Example 141, hydrochloride]", "basal gastric acid secretion", 51),
]

====

target: proton pump (H+/K+-ATPase) (Sus scrofa); construct: Gastric vesicles were prepared from hog stomach via centrifugal separation; experiment: Measurement of inhibitory effects on proton pump (H+/K+-ATPase) activities; settings: hog gastric vesicles, K+-specific H+/K+-ATPase activity, Tris-HCl buffer pH 7.4, 37° C. for 40 minutes, malachite green Pi readout
pIC50: −log10 of the molar value. Counter-ions that a name gives are not always drawn.
// F strictly below 6 in pIC50; T otherwise

# COMPOUND, GROUP
data = [
    ("CNCc1cn(S(=O)(=O)c2ccccc2Cl)c2cc(Nc3ccc(C)cc3F)ccc12 [Example 225, hydrochloride]", "F"),
    ("CNCc1cn(S(=O)(=O)c2cccnc2)c2cc(Nc3ccc([N+](=O)[O-])cc3C)ccc12 [Example 42, hydrochloride]", "T"),
    ("CNCc1cn(S(=O)(=O)c2cccc(F)c2)c2cc(Nc3ccc(F)cc3C)ccc12 [Example 138, hydrochloride]", "T"),
    ("CNCc1cn(S(=O)(=O)c2cccc(OC)c2)c2cc(Nc3ccc(Cl)cc3F)ccc12 [Example 164, hydrochloride]", "F"),
    ("CNCc1cn(S(=O)(=O)c2cccnc2)c2cc(Nc3c(F)cc(Cl)cc3F)ccc12 [Example 86, hydrochloride]", "T"),
    ("CNCc1cn(S(=O)(=O)c2cccnc2)c2cc(Nc3cc(F)ccc3F)ccc12 [Example 58, hydrochloride]", "T"),
]

====

biological target: proton pump (H+/K+-ATPase) (Sus scrofa, UniProt P19156); construct: Gastric vesicles were prepared from hog stomach via centrifugal separation; experiment: Measurement of inhibitory effects on proton pump (H+/K+-ATPase) activities; settings: hog gastric vesicles, K+-specific H+/K+-ATPase activity, Tris-HCl buffer pH 7.4, 37° C. for 40 minutes, malachite green Pi readout
Sequence (P19156 whole entry): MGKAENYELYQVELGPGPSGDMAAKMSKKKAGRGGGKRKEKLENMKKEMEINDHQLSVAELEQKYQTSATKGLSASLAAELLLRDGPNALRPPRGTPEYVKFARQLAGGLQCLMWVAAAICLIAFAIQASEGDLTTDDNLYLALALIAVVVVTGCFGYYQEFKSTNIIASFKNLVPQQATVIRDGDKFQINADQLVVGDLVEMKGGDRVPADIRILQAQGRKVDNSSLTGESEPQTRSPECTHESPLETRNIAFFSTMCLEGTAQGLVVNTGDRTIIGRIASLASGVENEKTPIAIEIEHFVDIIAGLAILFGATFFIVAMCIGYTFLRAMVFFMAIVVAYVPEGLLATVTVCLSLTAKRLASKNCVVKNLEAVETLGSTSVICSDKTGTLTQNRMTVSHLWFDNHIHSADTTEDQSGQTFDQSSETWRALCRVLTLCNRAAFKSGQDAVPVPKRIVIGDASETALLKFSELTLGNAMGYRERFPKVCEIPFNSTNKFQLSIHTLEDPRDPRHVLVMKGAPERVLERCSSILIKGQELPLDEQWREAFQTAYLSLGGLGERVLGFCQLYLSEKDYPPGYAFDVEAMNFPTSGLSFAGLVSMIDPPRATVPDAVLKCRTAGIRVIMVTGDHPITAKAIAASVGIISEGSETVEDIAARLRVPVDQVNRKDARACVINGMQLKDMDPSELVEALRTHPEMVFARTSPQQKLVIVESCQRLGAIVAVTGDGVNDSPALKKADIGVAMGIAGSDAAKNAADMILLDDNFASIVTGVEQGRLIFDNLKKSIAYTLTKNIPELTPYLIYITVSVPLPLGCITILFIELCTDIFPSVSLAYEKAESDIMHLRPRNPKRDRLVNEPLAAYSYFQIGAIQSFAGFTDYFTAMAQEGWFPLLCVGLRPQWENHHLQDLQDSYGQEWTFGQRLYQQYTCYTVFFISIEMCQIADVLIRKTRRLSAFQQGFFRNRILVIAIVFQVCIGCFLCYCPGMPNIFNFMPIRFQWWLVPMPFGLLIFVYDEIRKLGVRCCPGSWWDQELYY
Sequence (P18434 whole entry partner): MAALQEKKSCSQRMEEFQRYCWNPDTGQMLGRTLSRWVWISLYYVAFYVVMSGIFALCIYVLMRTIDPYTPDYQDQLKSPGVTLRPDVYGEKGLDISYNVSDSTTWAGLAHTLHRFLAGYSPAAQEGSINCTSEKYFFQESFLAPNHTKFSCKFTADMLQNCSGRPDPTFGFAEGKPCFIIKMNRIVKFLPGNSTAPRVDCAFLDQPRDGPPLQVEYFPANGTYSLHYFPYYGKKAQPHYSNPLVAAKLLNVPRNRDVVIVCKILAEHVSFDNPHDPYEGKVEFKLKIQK
pIC50: −log10 of the molar value. Counter-ions that a name gives are not always drawn.
# reported pIC50; entries follow

# COMPOUND, SYSTEM, pIC50
records = [
    ("CNCc1cn(S(=O)(=O)c2cccnc2)c2cc(Nc3c(F)cnc(F)c3F)ccc12 [Example 134, hydrochloride]", "proton pump (H+/K+-ATPase) (Sus scrofa, UniProt P19156)", 5.69),
    ("COc1cc(OC(F)(F)F)ccc1Nc1ccc2c(C(=O)N(C)C)cn(S(=O)(=O)c3cccnc3)c2c1", "proton pump (H+/K+-ATPase) (Sus scrofa, UniProt P19156)", 5.30),
    ("CNCc1cn(S(=O)(=O)c2cccnc2)c2cc(Nc3ccncc3C(F)(F)F)ccc12 [Example 129, hydrochloride]", "proton pump (H+/K+-ATPase) (Sus scrofa, UniProt P19156)", 4.99),
    ("CNCc1cn(S(=O)(=O)c2cccc(Cl)c2)c2cc(Nc3ccc(OC(F)(F)F)cc3C)ccc12 [Example 154, hydrochloride]", "proton pump (H+/K+-ATPase) (Sus scrofa, UniProt P19156)", 6.32),
]
